# maps each entry to its pEC50
- system_under_test: human GPR119 (Homo sapiens, UniProt Q8TDV5)
- Sequence (Q8TDV5 whole entry): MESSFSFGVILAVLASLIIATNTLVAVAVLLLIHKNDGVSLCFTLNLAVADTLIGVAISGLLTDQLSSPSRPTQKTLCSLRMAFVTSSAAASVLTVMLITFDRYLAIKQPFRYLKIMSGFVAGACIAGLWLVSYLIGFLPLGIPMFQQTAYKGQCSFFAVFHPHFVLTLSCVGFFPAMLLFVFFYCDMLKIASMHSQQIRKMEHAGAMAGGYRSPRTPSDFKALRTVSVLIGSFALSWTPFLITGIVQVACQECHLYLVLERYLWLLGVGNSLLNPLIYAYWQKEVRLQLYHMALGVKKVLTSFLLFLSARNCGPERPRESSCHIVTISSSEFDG
- protocol_details: Cyclic AMP assay in CHO-hGPR119 cells (HTRF)
- condition_notes: increase in intracellular cAMP; GPR119-transfected CHO cells
pEC50: −log10 of the molar value.
parameter: pEC50

>>> print(df.to_string())
                        structure_as_smiles  observed_result
0  CC(C)OC(=O)N1CCC(CCCOc2ccc(N3CCN(S(C)(=O)=O)CC3)cc2)CC1           < 6.10
1  CC1(OC(=O)N2CCC(COc3cnc(N4CCN(S(=O)(=O)[C@@H]5CCNC5)CC4=O)cn3)CC2)CC1           > 6.70
2  CCc1cnc(N2CCC(Oc3ccc4c5c(oc4c3)CN(S(C)(=O)=O)CC5)CC2)nc1           > 6.70
3  CC1(OC(=O)N2CCC(COc3cnc(N4CCN(S(C)(=O)=O)CC4)cn3)CC2)CC1           > 6.70
